Where do the numbers come from? From ChEMBL document CHEMBL5226307.

test: Metabolic stability in mouse brain assessed as parent compound remaining incubated for 30 mins by HPLC analysis; format: ADME, tissue-based; settings: read-out: Stability
Attribute Measured: remaining at 0.5 h (%)
Note: unit % is implicit; provide only the numeric part.

QUERY: Requested read-out: remaining at 0.5 h. Entry: `COc1cc(Br)cc2c1nc(C)c1c(C)nc(-c3ccc([18F])nc3)n12`
RESULT: 88

* * *

molecular target: cGMP-specific 3',5'-cyclic phosphodiesterase (Homo sapiens, UniProt O76074); assay: Inhibition of PDE5 (unknown origin)
Attribute Measured: pIC50
Here pIC50 is given on a logarithmic scale as minus log10 of the concentration in mol/L.

QUERY: Requested read-out: pIC50. Entry: `COc1ccc(CNc2c(CO)cnc3c(N4CC(F)C4)cc(C#N)cc23)cc1Cl`
RESULT: 8.73
